test: in vitro; conditions: rat, gh3-tre-luc cells, AC50 (uM) modified / 1000
Structures can show the parent of a compound that is named as a salt.

{"molecule": "O=c1c(-c2ccccc2)c1-c1ccccc1", "CC50 at 24 h": "5.54 µM"}
{"molecule": "CCNC(=O)NCc1cccc(Cl)c1", "CC50 at 24 h": "> 50 µM"}
{"molecule": "CC(C)(C)C(=O)OCOC(=O)[C@@H]1N2C(=O)C[C@H]2S(=O)(=O)C1(C)C", "CC50 at 24 h": "> 50 µM"}
{"molecule": "O=C1CCCC1", "CC50 at 24 h": "> 90 µM"}
{"molecule": "Nc1nc2ncc(CNc3ccc(C(=O)N[C@@H](CCC(=O)O)C(=O)O)cc3)nc2c(=O)[nH]1", "CC50 at 24 h": "> 90 µM"}
{"molecule": "N[C@@H](C(=O)N[C@@H]1C(=O)N2C(C(=O)O)=C(Cl)CC[C@H]12)c1ccccc1 [Loracarbef monohydrate]", "CC50 at 24 h": "> 50 µM"}
{"molecule": "CCCCCCOc1ccc(C(=N)N(CCCC)CCCC)c2ccccc12 [Bunamidine hydrochloride]", "CC50 at 24 h": "5.23 µM"}
{"molecule": "COc1ccc(NC(C)=O)cc1 [N-(4-Methoxyphenyl)acetamide]", "CC50 at 24 h": "> 90 µM"}
{"molecule": "N#CC1(N=NC2(C#N)CCCCC2)CCCCC1", "CC50 at 24 h": "> 90 µM"}
{"molecule": "Clc1cc(Cl)cc(Cl)c1", "CC50 at 24 h": "> 90 µM"}
{"molecule": "Cc1c(C)c2c(c(C)c1OC(=O)c1cccnc1)CC[C@@](C)(CCC[C@H](C)CCC[C@H](C)CCCC(C)C)O2 (racemic) [DL-alpha Tocopheryl nicotinate]", "CC50 at 24 h": "> 50 µM"}
{"molecule": "CC[C@H](C)[C@@H](C(=O)O)n1sc2ccccc2c1=O", "CC50 at 24 h": "> 90 µM"}
{"molecule": "CC(C)(C)c1ccc(CSc2cnn(C(C)(C)C)c(=O)c2Cl)cc1", "CC50 at 24 h": "47.4 µM"}
{"molecule": "CCN(CC)C(=O)c1cc(S(=O)(=O)Cc2ccccc2)c(N2CCC(c3ccccc3)CC2)cc1N(CC)CCN(C)C [HMR1171 trifluoroacetate (1:1)]", "CC50 at 24 h": "4.78 µM"}
{"molecule": "CCCCCCCCCCCOC(=O)c1ccccc1C(=O)OCCCCCCCCCCC [Diundecyl phthalate]", "CC50 at 24 h": "> 50 µM"}
{"molecule": "CC(C)(CO)[C@@H](O)C(=O)NCCCO", "CC50 at 24 h": "> 50 µM"}
{"molecule": "C#C[C@]1(O)CC[C@H]2[C@@H]3CCC4=CC(=O)CCC4=C3C=C[C@@]21CC", "CC50 at 24 h": "> 50 µM"}
{"molecule": "CCOCN(C(=O)CCl)c1c(C)cccc1CC", "CC50 at 24 h": "> 90 µM"}
{"molecule": "CC1(C)CCC(C)(C)c2cc(NC(=O)c3ccc(C(=O)O)cc3)ccc21", "CC50 at 24 h": "15.4 µM"}
{"molecule": "Cc1cc(-c2cc(C)c(N)c(C)c2)cc(C)c1N", "CC50 at 24 h": "> 90 µM"}
{"molecule": "NC(=O)CCCCC1CCSS1 (stereo not drawn) [alpha-Lipoic acid amide]", "CC50 at 24 h": "> 50 µM"}
{"molecule": "CCCCCC(C=O)=Cc1ccccc1", "CC50 at 24 h": "> 90 µM"}
{"molecule": "O=[N+]([O-])c1c(Cl)cc(Cl)cc1Cl", "CC50 at 24 h": "> 90 µM"}
{"molecule": "CCC(C)c1cc([N+](=O)[O-])cc([N+](=O)[O-])c1OC(=O)OC(C)C (stereo not shown)", "CC50 at 24 h": "42.5 µM"}
{"molecule": "CC(C)(C)c1cc(CO)cc(C(C)(C)C)c1O", "CC50 at 24 h": "82.2 µM"}
{"molecule": "O=C1OC[C@@H](Cc2cccc(O)c2)[C@@H]1Cc1cccc(O)c1", "CC50 at 24 h": "> 30 µM"}
{"molecule": "O=C(OCC1CO1)C1CCCCC1C(=O)OCC1CO1 (stereo not shown)", "CC50 at 24 h": "44.7 µM"}
{"molecule": "COCCOCCOCCOCCOCCO", "CC50 at 24 h": "> 90 µM"}
